# Test system: HEK-293T
# protocol description: Incucyte cell viability with HEK293T; further: filed as whole numbers so only -1 and 0 and 1 occur
# Type: toxicity, cell-based
# assay conditions: human, 12 h, 10 µM, compound concentration 10 uM, replicate number 1, timepoint 12 hours
result type: Growth Rate
Write no unit; give the number alone.

C=CCn1c(=O)c2cnc(Nc3ccc(N4CCN(C)CC4)cc3)nc2n1-c1cccc(C(C)(C)O)n1 | 0

What does the record list as Growth Rate for Cc1ccc(-c2cnc([C@@]3(O)CC[C@H](C(=O)O)C(C)(C)C3)s2)cc1Nc1cccc(C(F)(F)F)n1 ?
1

Given the compound CCCNS(=O)(=O)Nc1ncnc(OCCOc2ncc(Br)cn2)c1-c1ccc(Br)cc1 , what is its reported Growth Rate?
0

What measured Growth Rate goes with C[C@H]1Oc2cc(cnc2N)-c2c(nn(C)c2C#N)CN(C)C(=O)c2ccc(F)cc21 ?
0

// lookup Growth Rate for CC1(C)CCC(C)(C)c2cc(NC(=O)c3ccc(C(=O)O)cc3)ccc21
1

Any idea what Growth Rate was measured for C=CC(=O)N1CCC([C@@H]2CCNc3c(C(N)=O)c(-c4ccc(Oc5ccccc5)cc4)nn32)CC1 ?
0
